Recorded pIC50 values for a group of molecules are listed next.
# target_or_test_system: TraR (Agrobacterium tumefaciens, UniProt P33905)
# Construct: These strains lack their AHL synthase (I) genes, but retain their native R genes; endogenous in cells; host or cells: A. tumefaciens WCF47 (Δ-traI) with PtraI-lacZ plasmid pCF372
# Sequence (P33905 whole entry): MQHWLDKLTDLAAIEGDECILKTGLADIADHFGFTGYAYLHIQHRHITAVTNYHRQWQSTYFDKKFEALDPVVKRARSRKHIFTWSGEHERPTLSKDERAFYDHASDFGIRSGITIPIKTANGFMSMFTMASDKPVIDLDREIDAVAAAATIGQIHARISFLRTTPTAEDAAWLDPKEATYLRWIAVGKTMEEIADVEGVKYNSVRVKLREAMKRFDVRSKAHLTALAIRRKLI
# assay_explanation: cell-based
# condition_set: determined against 100 nM OOHL; read-out: TraR IC50
Lab note: report pIC50 as minus log10 of the concentration in molar units, number only.

// assay TraR (Agrobacterium tumefaciens, UniProt P33905), entry CC(=O)c1ccc(OCC(=O)N[C@H]2CCOC2=O)cc1C , pIC50 value = 5.85

# CCCCCCCC(=O)N[C@H]1CCOC1=O with TraR (Agrobacterium tumefaciens, UniProt P33905): pIC50 is 6.11

***
Entry O=C(Cc1ccc(C(F)(F)F)cc1)N[C@H]1CCOC1=O , tested on TraR (Agrobacterium tumefaciens, UniProt P33905), has a reported pIC50 of 6.09

* * *

# target_or_test_system: LuxR (Aliivibrio fischeri, UniProt P35327)
# Construct: a Δ-luxI derivative of V. fischeri ES114, in which the native lux operon behaves as the bioluminescent reporter; endogenous in cells; host or cells: V. fischeri ES114 (Δ-luxI)
# Sequence (P35327 whole entry): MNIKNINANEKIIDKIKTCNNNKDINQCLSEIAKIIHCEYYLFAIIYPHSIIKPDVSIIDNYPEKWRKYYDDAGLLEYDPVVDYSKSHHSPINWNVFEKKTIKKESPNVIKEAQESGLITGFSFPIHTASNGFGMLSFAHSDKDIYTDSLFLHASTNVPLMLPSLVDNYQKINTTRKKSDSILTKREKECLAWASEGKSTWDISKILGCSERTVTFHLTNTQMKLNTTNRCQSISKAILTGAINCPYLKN
# assay_explanation: cell-based
# Type: cell-based, Vibrio fischeri
# condition_set: 5 μM synthetic ligand against 5 μM OHHL; V. fischeri ES114 (Δ-luxI); normalized to OHHL
Entries and their V. fischeri-LuxR Inhibition [%]
Write the number in % without appending the unit.

// known answers, use as guide
What the record says about O=C(CC1CCCC1)N[C@H]1CCOC1=O : V. fischeri-LuxR Inhibition [%] is 57

Lab note: COc1ccc(CC(=O)N[C@H]2CCOC2=O)cc1 gave V. fischeri-LuxR Inhibition [%] of 57

The reported V. fischeri-LuxR Inhibition [%] of the compound CCOc1ccc(CC(=O)N[C@H]2CCOC2=O)cc1 was 55

Now for a further compound.
Sample O=C(Cc1ccccc1I)N[C@H]1CCOC1=O ; V. fischeri-LuxR Inhibition [%] observed: 63

* * *

# target_or_test_system: LuxR (Aliivibrio fischeri)
# Construct: a Δ-luxI derivative of V. fischeri ES114, in which the native lux operon behaves as the bioluminescent reporter; endogenous in cells; host or cells: V. fischeri ES114 (Δ-luxI)
# assay_explanation: cell-based
# Design: species or system Vibrio fischeri
# condition_set: 200 μM ligand; V. fischeri ES114 (Δ-luxI); normalized to OHHL
Below is a list of entries, each paired with its recorded V. fischeri-LuxR Activation [%] value.
State the answer as a number, implicitly in %.

Known results for molecules:
The reported LuxR (Aliivibrio fischeri) V. fischeri-LuxR Activation [%] of O=C(/C=C/c1ccccc1)N[C@H]1CCOC1=O is 3

Measured V. fischeri-LuxR Activation [%] for this entry O=C(CCCc1c[nH]c2ccccc12)N[C@@H]1CCOC1=O on LuxR (Aliivibrio fischeri): 2

For O=C(Cc1c(F)c(F)c(F)c(F)c1F)N[C@H]1CCOC1=O on LuxR (Aliivibrio fischeri), measured V. fischeri-LuxR Activation [%] was 2

Hey, LuxR (Aliivibrio fischeri) data for CCOc1ccc(CC(=O)N[C@H]2CCOC2=O)cc1 : V. fischeri-LuxR Activation [%] came out at 2

Further cases:
The measured V. fischeri-LuxR Activation [%] that O=C(CC(=O)N[C@@H]1CCOC1=O)Cc1ccccc1 [A25] showed for LuxR (Aliivibrio fischeri) is 3

Measured V. fischeri-LuxR Activation [%] for this entry COc1cc(C(C)=O)ccc1OCC(=O)N[C@H]1CCOC1=O on LuxR (Aliivibrio fischeri): 1

The reported V. fischeri-LuxR Activation [%] value, LuxR (Aliivibrio fischeri), for CCCCCCCCCCCCCCCC(=O)N[C@H]1CCOC1=O reads 2

Tested on LuxR (Aliivibrio fischeri), the item O=C(CCCc1c[nH]c2ccccc12)N[C@H]1CCOC1=O [A18, indole AHL, reference compound] showed V. fischeri-LuxR Activation [%] equal to 3

I looked up O=C(Cc1ccccc1I)N[C@H]1CCOC1=O and its V. fischeri-LuxR Activation [%] for LuxR (Aliivibrio fischeri) was 7

CC(C)(C)OC(=O)NCCCCC(=O)N[C@H]1CCOC1=O tested on LuxR (Aliivibrio fischeri) gave V. fischeri-LuxR Activation [%]: 2

* * *

# target_or_test_system: LuxR (Aliivibrio fischeri)
# Construct: a Δ-luxI derivative of V. fischeri ES114, in which the native lux operon behaves as the bioluminescent reporter; endogenous in cells; host or cells: V. fischeri ES114 (Δ-luxI)
# assay_explanation: cell-based
# Type: cell-based, Vibrio fischeri
# condition_set: LuxR IC50, determined against 5 μM OHHL
# Experimental: Luminescence assays. For agonism assays, an appropriate amount of AHL stock solution was added into a 96-well plate. […] Luminescence was measured using a multilabel plate reader and normalized to cell density. […] Vibrio fischeri assay procedures. […] Luminescence then was measured and normalized to cell density per well. […] IC50 and EC50 values were calculated using GraphPad Prism software using a sigmoidal curve fit. […]
readout_type: pIC50
Worth noting: pIC50 values are minus log10 of concentrations stated in mol/L.

Lookup result for O=C(Cc1ccc(C(F)(F)F)cc1)N[C@H]1CCOC1=O [11s, 4-trifluoromethyl PHL] ; measured pIC50: 6.22

More entries:
pIC50 measured on CCCCCCC(=O)NC1CCOC1=O (stereo not shown) [compound 4] = 5.87

Record CCCCCCCCCC(=O)CC(=O)N[C@H]1CCOC1=O [A8, reference compound] . Reported pIC50: 6.40

The molecule listed as CCCCCCCC(=O)N[C@H]1CCOC1=O [A3, C8 AHL] shows pIC50 equal to 6.11

Noted for O=C(Cc1ccc(-c2ccccc2)cc1)N[C@H]1CCOC1=O [C18, 4-phenyl PHL] : its pIC50 reads 5.97

Entry O=C(Cc1ccc(Br)cc1)N[C@H]1CCOC1=O [compound 8, reference compound] , pIC50 reported as 5.43

pIC50 reading for O=C(Cc1ccc(-c2ccccc2)cc1)NC1CCOC1=O (stereo not shown) [B21, 4-phenyl PHL] : 5.97

* * *

# target_or_test_system: LasR (Pseudomonas aeruginosa)
# Construct: expressed in transfected cells; host or cells: E. coli DH5α (pJN105L pSC11), arabinose-induced
# Sequence (P25084 whole entry): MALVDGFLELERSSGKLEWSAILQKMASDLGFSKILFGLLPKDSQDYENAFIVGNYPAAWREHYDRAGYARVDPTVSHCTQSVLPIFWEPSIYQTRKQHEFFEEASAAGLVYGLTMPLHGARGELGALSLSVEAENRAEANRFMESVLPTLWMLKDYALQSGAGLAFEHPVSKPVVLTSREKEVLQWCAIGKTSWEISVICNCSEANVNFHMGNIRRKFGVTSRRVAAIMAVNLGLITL
# assay_explanation: cell-based
# Format: cell-based
# condition_set: 5 μM synthetic ligand against 7.5 nM OdDHL; E. coli DH5α (pJN105L pSC11); normalized to OdDHL
readout_type: E. coli-LasR Inhibition [%] (%)
Quick note: give the figure in %, leave out the unit.

Lab note: compound CCCCCCCCCCCCCCCC(=O)N[C@H]1CCOC1=O tested on LasR (Pseudomonas aeruginosa); recorded E. coli-LasR Inhibition [%] was 5

LasR (Pseudomonas aeruginosa) E. coli-LasR Inhibition [%] of O=C(CC(=O)N[C@@H]1CCOC1=O)Cc1ccccc1 [B2] is −7

Here O=C(CC(=O)N[C@@H]1CCOC1=O)Cc1ccccc1 [A25] was tested on LasR (Pseudomonas aeruginosa), and its E. coli-LasR Inhibition [%] came to −7

Entry O=C(NC1CCOC1=O)c1ccc(N=Nc2ccccc2)cc1 (stereo not shown) , tested on LasR (Pseudomonas aeruginosa), has a reported E. coli-LasR Inhibition [%] of 12

// E. coli-LasR Inhibition [%] (LasR (Pseudomonas aeruginosa)) for O=C(/C=C/c1ccccc1)N[C@H]1CCOC1=O = 22

Fill in: LasR (Pseudomonas aeruginosa) E. coli-LasR Inhibition [%] for CC(=O)c1ccc(OCC(=O)N[C@H]2CCOC2=O)cc1C = 26

Kindly note: LasR (Pseudomonas aeruginosa), O=C(CCCc1c[nH]c2ccccc12)N[C@H]1CCOC1=O [A18, indole AHL, reference compound] , E. coli-LasR Inhibition [%] value reported: 36

Measured on LasR (Pseudomonas aeruginosa), CCCCCCCCCCCS(=O)(=O)N[C@H]1CCOC1=O has a documented E. coli-LasR Inhibition [%] of 21

Measured E. coli-LasR Inhibition [%] for this entry O=C(Cc1ccc(Br)cc1)N[C@H]1CCOC1=O [A17, 4-bromo-phenylacetanoyl HL, reference compound] on LasR (Pseudomonas aeruginosa): 28

Further cases:
Measured E. coli-LasR Inhibition [%] (LasR (Pseudomonas aeruginosa)), entry O=C(Cc1c(F)c(F)c(F)c(F)c1F)N[C@H]1CCOC1=O : 19

* * *

Measured V. fischeri-LuxR Inhibition [%] of individual entries
# target_or_test_system: LuxR (Aliivibrio fischeri, UniProt P35327)
# Construct: a Δ-luxI derivative of V. fischeri ES114, in which the native lux operon behaves as the bioluminescent reporter; endogenous in cells; host or cells: V. fischeri ES114 (Δ-luxI)
# assay_explanation: cell-based
# Type: cell-based, Vibrio fischeri
# condition_set: 5 μM synthetic ligand against 5 μM OHHL; V. fischeri ES114 (Δ-luxI); normalized to OHHL

Just so you know, measured V. fischeri-LuxR Inhibition [%] for O=C(CCC(=O)OC(C(=O)c1ccccc1)c1ccccc1)N[C@H]1CCOC1=O (stereo partly shown) came out at 30%

Please look at the following compound next.
GET /value?item= O=C(Cc1ccc(Br)cc1)N[C@H]1CCOC1=O [A17, 4-bromo-phenylacetanoyl HL, reference compound] &field=V. fischeri-LuxR Inhibition [%] returns 79%

The measurements presented in this section are drawn from patent US7910622B2.
